Test system: P. falciparum stage V gametocytes
Set-up: BacTiter-Glo ATP luminescence viability of purified stage V gametocytes in 384-well plates, per cent inhibition versus DMSO
condition-notes: 48 h, 5 µM; inhibitor
In all, about 13,000 compounds went through this assay and about 3,200 (25%) showed an effect of 50% or more. The list shows a part of the results.
Kindly supply the reported % Inhibition values for the records listed here.
Field: numeric (%). Do not append units.

**Q:** Supply measured % Inhibition of COCCN1CCN(Cc2ccc(-c3cccc(-c4nc5ccccc5[nH]4)c3)cc2)CC1 [TCMDC-132559] in your reply.
**A:** 86.66

**Q:** Supply measured % Inhibition of Cc1cc(-c2ccc(CN3Cc4ccccc4C3)cc2)ccc1S(=O)(=O)NCCN1CCCC1 [TCMDC-132293] in your reply.
**A:** 17.83

**Q:** Supply measured % Inhibition of Fc1cc(Cl)ccc1Nc1ccnc2cc(I)ccc12 [TCMDC-138376] in your reply.
**A:** -32.49

**Q:** Supply measured % Inhibition of CCNc1cc(C(=O)N[C@@H](Cc2ccccc2)[C@H](O)CNCc2cc(OC)cc(OC)c2)cc(N2CCCS2(=O)=O)c1 [TCMDC-134557] in your reply.
**A:** -5.029

**Q:** Supply measured % Inhibition of CN1CCC(N2CCN(Cc3cccc(-c4ccc(-c5nc6ccccc6[nH]5)cc4)c3)CC2)CC1 [TCMDC-133850] in your reply.
**A:** 29.34

**Q:** Supply measured % Inhibition of COCCNCc1ccc(-c2ccc3c(Nc4ccc(F)cc4Cl)ccnc3c2)o1 [TCMDC-138448] in your reply.
**A:** 12.72

**Q:** Supply measured % Inhibition of Fc1ccc(Nc2ccnc3cc(-c4ccc(CN5CCOCC5)o4)ccc23)c(Cl)c1 [TCMDC-138450] in your reply.
**A:** -9.806

**Q:** Supply measured % Inhibition of c1cc(-c2ccc(CN3CCCC3)cc2)cc(-c2nc3ccccc3[nH]2)c1 [TCMDC-133794] in your reply.
**A:** 34.22

**Q:** Supply measured % Inhibition of O=C(Nc1ccc(Cl)c(Cl)c1)N1CCC(CN2CCC(c3c[nH]c4ccccc34)CC2)CC1 [TCMDC-140195] in your reply.
**A:** -22.77

**Q:** Supply measured % Inhibition of O=S(=O)(NCCN1CCCC1)c1ccc(-c2cccc(CNC3Cc4ccccc4C3)c2)cc1F [TCMDC-132221] in your reply.
**A:** 86.87

**Q:** Supply measured % Inhibition of O=C(Nc1ccc(N2CCCN(Cc3cccc(F)c3)CC2)cc1)c1ccc(F)cc1 [TCMDC-135020] in your reply.
**A:** -31.48

**Q:** Supply measured % Inhibition of FC(F)(F)c1ccc(NC(=S)N2CCC(CCN3CCC(c4c[nH]c5ccccc45)CC3)CC2)cc1 [TCMDC-140188] in your reply.
**A:** 107.1

**Q:** Supply measured % Inhibition of O=C(Nc1cc(C(F)(F)F)cc(C(F)(F)F)c1)N1CCC(CCN2CCC(c3c[nH]c4ccccc34)CC2)CC1 [TCMDC-140189] in your reply.
**A:** 108.5

**Q:** Supply measured % Inhibition of O=C(Nc1cc(C(F)(F)F)cc(C(F)(F)F)c1)N1CCC(CN2CCC(c3c[nH]c4ccccc34)CC2)CC1 [TCMDC-140192] in your reply.
**A:** -4.081

**Q:** Supply measured % Inhibition of OC(CNC1CCCCC1)Cn1c2ccc(Br)cc2c2cc(Br)ccc21 (centres unmarked) [TCMDC-124059] in your reply.
**A:** 90.2

**Q:** Supply measured % Inhibition of CN1CCN(c2cccc(NC(=O)c3ccc(-c4ccc(C#N)cc4)cc3)c2)CC1 [TCMDC-138669] in your reply.
**A:** -26.05

**Q:** Supply measured % Inhibition of c1ccc2[nH]c(-c3ccc(-c4ccc(CN5CCCCC5)cc4)cc3)nc2c1 [TCMDC-133906] in your reply.
**A:** 32.64

**Q:** Supply measured % Inhibition of CN(C)CCN(C)Cc1ccc(-c2ccc3c(Nc4ccc(Cl)cc4F)ccnc3c2)o1 [TCMDC-138388] in your reply.
**A:** 33.59

**Q:** Supply measured % Inhibition of N#C/N=C(\NCCCCCCCCN/C(=N\C#N)NCCSCc1csc(N=C(N)N)n1)NCCCSc1csc(N=C(N)N)n1 [TCMDC-139456] in your reply.
**A:** -7.363

**Q:** Supply measured % Inhibition of Cc1cc(-c2ccc(CNC3Cc4ccccc4C3)cc2)ccc1S(=O)(=O)NCCN1CCCC1 [TCMDC-132243] in your reply.
**A:** 88.03

**Q:** Supply measured % Inhibition of O=C(Nc1ccc(Oc2ccccc2)cc1)N1CCC(CN2CCC(c3c[nH]c4ccccc34)CC2)CC1 [TCMDC-140194] in your reply.
**A:** 35.38

**Q:** Supply measured % Inhibition of CN(C)CCN(C)Cc1ccc(-c2ccc3c(Nc4ccc(F)cc4Cl)ccnc3c2)o1 [TCMDC-138447] in your reply.
**A:** 57.57

**Q:** Supply measured % Inhibition of COc1ccc2nccc([C@@H](O)CN3CCC(NC(=O)c4ccc(Cl)c([N+](=O)[O-])c4)CC3)c2c1 [TCMDC-141037] in your reply.
**A:** -23.07

**Q:** Supply measured % Inhibition of CC(C)CCNCc1c(O)ccc2ccccc12 [TCMDC-137596] in your reply.
**A:** 6.02

**Q:** Supply measured % Inhibition of c1cc(CN2CCN(CCN3CCOCC3)CC2)cc(-c2cccc(-c3nc4ccccc4[nH]3)c2)c1 [TCMDC-133922] in your reply.
**A:** -15.36

**Q:** Supply measured % Inhibition of CC(C)CNCc1ccc(-c2cccc(CN(C(=O)CCC3CCCC3)C3CCN(Cc4ccccc4)CC3)c2)cc1 [TCMDC-140551] in your reply.
**A:** 80.54

**Q:** Supply measured % Inhibition of COCCNCc1ccc(-c2ccc3c(Nc4ccc(Cl)cc4F)ccnc3c2)o1 [TCMDC-138390] in your reply.
**A:** 17.71

**Q:** Supply measured % Inhibition of CC(C)NCC(O)Cn1c2ccc(Br)cc2c2cc(Br)ccc21 (centres unmarked) [TCMDC-124100] in your reply.
**A:** 43.74

**Q:** Supply measured % Inhibition of CS(=O)(=O)CCNCc1ccc(-c2ccc3c(Nc4ccc(Cl)cc4F)ccnc3c2)o1 [TCMDC-138445] in your reply.
**A:** 0.4033

**Q:** Supply measured % Inhibition of Cc1nn(C)c(C)c1CN(Cc1nc(-c2cccc(Oc3ccccc3)c2)oc1C)C1CC1 [TCMDC-124629] in your reply.
**A:** 8.903

**Q:** Supply measured % Inhibition of CC(C)Oc1ccc2ccccc2c1CNCCCCCCNCc1c(OC(C)C)ccc2ccccc12 [TCMDC-137965] in your reply.
**A:** 107.1

**Q:** Supply measured % Inhibition of CN1CCN(Cc2ccc(-c3ccc4c(Nc5ccc(F)cc5Cl)ccnc4c3)o2)CC1 [TCMDC-138452] in your reply.
**A:** 13.09
